Measured on: Rac GTPase-activating protein 1 (Homo sapiens) (UniProt Q9H0H5)
Sequence (Q9H0H5 whole entry, looked up): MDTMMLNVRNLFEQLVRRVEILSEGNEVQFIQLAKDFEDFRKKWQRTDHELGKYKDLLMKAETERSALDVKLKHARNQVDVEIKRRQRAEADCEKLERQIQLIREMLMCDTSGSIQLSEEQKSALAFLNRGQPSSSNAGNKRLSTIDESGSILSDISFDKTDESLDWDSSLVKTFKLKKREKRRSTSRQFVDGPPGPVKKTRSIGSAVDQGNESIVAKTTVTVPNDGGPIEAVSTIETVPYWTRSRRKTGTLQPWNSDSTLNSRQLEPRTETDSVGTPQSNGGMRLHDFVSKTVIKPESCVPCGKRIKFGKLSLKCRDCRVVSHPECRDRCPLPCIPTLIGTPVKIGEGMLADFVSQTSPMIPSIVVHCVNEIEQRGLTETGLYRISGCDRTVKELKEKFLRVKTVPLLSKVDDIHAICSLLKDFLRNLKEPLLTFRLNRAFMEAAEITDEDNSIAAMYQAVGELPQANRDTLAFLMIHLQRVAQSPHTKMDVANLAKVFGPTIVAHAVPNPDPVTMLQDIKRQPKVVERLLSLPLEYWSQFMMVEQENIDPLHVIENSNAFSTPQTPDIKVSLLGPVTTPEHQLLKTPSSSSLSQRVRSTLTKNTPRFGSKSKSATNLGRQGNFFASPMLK
Assay explanation: blockers of MgcRacGAP-driven Rac1 GTP hydrolysis – biochemical, ADP Hunter fluorescence, primary and confirmatory, confirmation (AID 624330);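 further: fluorescence reports GDP produced by GAP-driven GTP hydrolysis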
Study conditions: MgcRacGAP-stimulated Rac1 GTP hydrolysis, at 30 µM, stronger effect = higher value, GST-tagged Rac1 F28L mutant substrate
About 2,100 (0.62%) of roughly 340,000 compounds were called active. Only a sample is shown. Entries with a potency or affinity are not part of this list.
Endpoint: inhibition (%)
Please reply with the bare figure in % and do not write the unit itself.

Some compounds with recorded inhibition:
1) CN1CC(=O)N(CC(=O)Nc2ccc(F)cc2)c2ccccc2C1=O : -12.2
2) Cc1ccc(NC(=O)CN2C(=O)c3ccccc3C2=O)cc1 : 10.7

Provide inhibition, recorded with Rac GTPase-activating protein 1 (Homo sapiens) (UniProt Q9H0H5), of COc1ccc(NC(=O)CCN2C(=O)c3cccc([N+](=O)[O-])c3C2=O)cc1
6.66

Provide inhibition, recorded with Rac GTPase-activating protein 1 (Homo sapiens) (UniProt Q9H0H5), of CC(=O)c1ccc(N2CCN(C(=S)NCc3ccco3)CC2)cc1
3.83

Provide inhibition, recorded with Rac GTPase-activating protein 1 (Homo sapiens) (UniProt Q9H0H5), of O=C(NCc1ccccn1)Nc1cccc(F)c1
7.66

Provide inhibition, recorded with Rac GTPase-activating protein 1 (Homo sapiens) (UniProt Q9H0H5), of CCOC(=O)c1[nH]c2ccccc2c1N=CN(C)C
27.9
